assay: in vitro; conditions: human, hela cells, % viability

- COMPOUND: "Cc1ccn(CCC(=O)NC(Cc2ccsc2)c2nccs2)n1 (stereo not shown)"
  viability at 28.5 h, 10 µM: "92.5%"
- COMPOUND: "C1CN(c2nc(N3CCOCC3)nc(N3CCOCC3)n2)CCN1"
  viability at 28.5 h, 10 µM: "84.9%"
- COMPOUND: "O=C(Cn1cc(Br)ccc1=O)NC1CCN(Cc2ccccn2)CC1"
  viability at 28.5 h, 10 µM: "92.2%"
- COMPOUND: "CCN(CC)CCOc1c(C)cc(Cl)cc1C"
  viability at 28.5 h, 10 µM: "97%"
- COMPOUND: "CCc1nc2ccc(C(=O)N(C)Cc3ccco3)cn2c1N(C)C(=O)c1ccncc1"
  viability at 28.5 h, 10 µM: "90.9%"
- COMPOUND: "CCCCc1ccc(NC(=S)NC(=O)c2ccc(OC)c(OC)c2)cc1"
  viability at 28.5 h, 10 µM: "100%"
- COMPOUND: "Cc1n[nH]c(C)c1Sc1nnc(O)nc1O"
  viability at 28.5 h, 10 µM: "87.2%"
- COMPOUND: "CN1CCC(=NNC(=O)CCSc2ccc(Cl)cc2)CC1"
  viability at 28.5 h, 10 µM: "99.6%"
- COMPOUND: "O=S(=O)(Nc1ccc2cn[nH]c2c1)c1ccc(-c2ccon2)s1"
  viability at 28.5 h, 10 µM: "98.3%"
- COMPOUND: "C=CCn1c(S)nnc1COc1cccc2ccccc12"
  viability at 28.5 h, 10 µM: "89.4%"

====

experiment: in vitro; conditions: human, hela cells, % viability
ENDPOINT_NAME: viability at 28.5 h, 10 µM (%)

- COMPOUND: "COc1ccc(CCC(=O)NC[C@H]2CC[C@H](c3cc(C(N)=O)c4ccccc4n3)CC2)cc1"
  MEASUREMENT_UNIT: "%"
  MEASURED_NUMBER: 91.7
- COMPOUND: "CC(C)c1cc(C(=O)N2CCNC(c3ccccc3)C2)nc2ncnn12 (stereo not shown)"
  MEASUREMENT_UNIT: "%"
  MEASURED_NUMBER: 91.9
- COMPOUND: "O=C(O)c1cccc(NS(=O)(=O)c2ccc(F)cc2F)c1"
  MEASUREMENT_UNIT: "%"
  MEASURED_NUMBER: 95.4
- COMPOUND: "O=C(NC(=S)Nc1cccc(Cl)c1)c1cncc(Br)c1"
  MEASUREMENT_UNIT: "%"
  MEASURED_NUMBER: 94.1
- COMPOUND: "CSCc1nnc(SCCC(=O)N2CCN(c3ccc(F)cc3)CC2)o1"
  MEASUREMENT_UNIT: "%"
  MEASURED_NUMBER: 93.2
- COMPOUND: "COc1ccc(Cc2n[nH]c(=S)n2-c2cccnc2)cc1"
  MEASUREMENT_UNIT: "%"
  MEASURED_NUMBER: 85.5
- COMPOUND: "COc1ccccc1NC(=O)c1c(NC(=O)c2cccs2)sc2c1CCC(C(C)(C)C)C2 (stereo not shown)"
  MEASUREMENT_UNIT: "%"
  MEASURED_NUMBER: 100
- COMPOUND: "O=c1[nH]cnc2ccc(Br)cc12"
  MEASUREMENT_UNIT: "%"
  MEASURED_NUMBER: 93.7
- COMPOUND: "CC(=O)N1CCc2c([nH]c3ccccc23)C1CNCc1ccc(F)cc1 (stereo not shown)"
  MEASUREMENT_UNIT: "%"
  MEASURED_NUMBER: 96.6
- COMPOUND: "COc1ccnc(N2CCN(C(=O)c3c4c(nn3C)CCCC4)CC2)n1"
  MEASUREMENT_UNIT: "%"
  MEASURED_NUMBER: 118
- COMPOUND: "CCc1nn(CC(=O)N2CCCC2)c(=O)c2cc3sc(C)cc3n12"
  MEASUREMENT_UNIT: "%"
  MEASURED_NUMBER: 82.9
- COMPOUND: "O=C(COC(=O)c1cc(-c2ccc(Cl)cc2)nc2ccccc12)c1cccc([N+](=O)[O-])c1"
  MEASUREMENT_UNIT: "%"
  MEASURED_NUMBER: 83
- COMPOUND: "O=C(Nc1cc(Oc2cccnc2)cc([N+](=O)[O-])c1)c1sc2ccccc2c1Cl"
  MEASUREMENT_UNIT: "%"
  MEASURED_NUMBER: 106
- COMPOUND: "Cc1cc(/C=C(/C#N)c2ccc([N+](=O)[O-])cc2)c(C)n1-c1ccc(S(N)(=O)=O)cc1"
  MEASUREMENT_UNIT: "%"
  MEASURED_NUMBER: 108
- COMPOUND: "CC(C)(C)OC(=O)N1CCCC(C(=O)Nc2ccccn2)C1 (stereo not shown)"
  MEASUREMENT_UNIT: "%"
  MEASURED_NUMBER: 95.4
- COMPOUND: "Cc1cc(=O)c2ccccc2n1CC(=O)N1CCNC(=O)C1C (stereo not shown)"
  MEASUREMENT_UNIT: "%"
  MEASURED_NUMBER: 109
- COMPOUND: "CCOc1cc(C(=O)O)ccc1OCCOc1cccc(C)c1"
  MEASUREMENT_UNIT: "%"
  MEASURED_NUMBER: 91.6
- COMPOUND: "COc1ccc(OCCCOc2ccccc2C(C)C)cc1"
  MEASUREMENT_UNIT: "%"
  MEASURED_NUMBER: 90.8
- COMPOUND: "CC(C)(C)C1CCC(OC(=O)CCC(=O)O)CC1 (stereo not shown)"
  MEASUREMENT_UNIT: "%"
  MEASURED_NUMBER: 105

====

test: in vitro; conditions: human, hela cells, % viability
As shown below, each of these compounds has a reported viability at 28.5 h, 10 µM value.

- COMPOUND: "N[C@H](CSCc1ccccc1)C(=O)Nc1ccc([N+](=O)[O-])cc1 [CBK074824]"
  MEASUREMENT_UNIT: "%"
  viability at 28.5 h, 10 µM: 88.8
- COMPOUND: "Cc1ccc(C)c(CC(=O)N(C)C2CCN(C3CCOCC3)CC2)c1 [CBK304964]"
  MEASUREMENT_UNIT: "%"
  viability at 28.5 h, 10 µM: 87.4
- COMPOUND: "O=C(NO)c1nccnc1-c1ccc(COc2ccccc2)cc1 [CBK050841]"
  MEASUREMENT_UNIT: "%"
  viability at 28.5 h, 10 µM: 96.4
- COMPOUND: "CCOC(=O)c1cn(CC2(CO)CCC2)cc(Oc2ccccc2)c1=O [CBK306698]"
  MEASUREMENT_UNIT: "%"
  viability at 28.5 h, 10 µM: 97.2
- COMPOUND: "O=C1CC(N2CCN(Cc3ccc4c(c3)OCO4)CC2)C(=O)N1c1cc(Cl)cc(Cl)c1 (centres unmarked) [CBK074554]"
  MEASUREMENT_UNIT: "%"
  viability at 28.5 h, 10 µM: 94.5

====

tested on: CTL2-GFP (C. trachomatis L2/434/Bu, GFP-expressing); construct: L2/434/Bu, GFP-expressing; test: microbe, parasite or virus in culture; design: Intracellular C. trachomatis growth in HeLa cells, bulk GFP fluorescence relative to DMSO; settings: Chlamydia trachomatis, HeLa, 28.5 h; bulk GFP, mean of 2; read-out: % of control remaining

- MOLECULE: "OCCNc1nc(Nc2ccc(Br)cc2)nc2ccccc12 [CBK266724C]"
  activity at 1 µM (%): 69.3
- MOLECULE: "Cc1nn(C)c(N2CCN(C(=O)OC(C)(C)C)CC2)c1N"
  activity at 1 µM (%): 120
- MOLECULE: "Cc1cc(C)nc(NS(=O)(=O)c2ccc(NC(=O)N3c4ccccc4Sc4ccccc43)cc2)n1"
  activity at 1 µM (%): 115

====

Overview of recorded viability at 28.5 h, 10 µM for various molecules
test: in vitro; details: human, hela cells, % viability
ENDPOINT_NAME: viability at 28.5 h, 10 µM (%)

- MOLECULE: "O=C(O)c1ccc(OCc2n[nH]c(=S)n2-c2ccc(Cl)cc2)cc1"
  MEASURED_NUMBER: 102
- MOLECULE: "NS(=O)(=O)c1ccc(CNC(=O)c2cncc(-c3ccc(C(=O)N4CCOCC4)cc3)c2)cc1"
  MEASURED_NUMBER: 100
- MOLECULE: "O=C(NCCc1ccc(S(=O)(=O)NC(=O)NC2CCCCC2)cc1)NC1CCCCC1"
  MEASURED_NUMBER: 88.4
- MOLECULE: "O=C(CSC1=NC(=O)C(c2ccccc2)C(=O)N1)NC1CCCCC1 (stereo not shown)"
  MEASURED_NUMBER: 103
- MOLECULE: "CCNC(=O)O[C@@H]1CO[C@H]2[C@@H]1OC[C@@H]2NS(=O)(=O)c1ccccc1C#N"
  MEASURED_NUMBER: 87.6
- MOLECULE: "CCC(c1ccc(F)cc1)n1cncc1-c1cnn(C)c1 (stereo not shown)"
  MEASURED_NUMBER: 95.7
- MOLECULE: "COc1ccc(OC)c(NC(=O)CNC(=O)c2ccc(C)cc2)c1"
  MEASURED_NUMBER: 91.5
- MOLECULE: "c1ccc([C@@H]2CN(Cc3ccccn3)C[C@H]2c2cc[nH]n2)cc1"
  MEASURED_NUMBER: 105
- MOLECULE: "O=C(c1cnc2ccccc2c1)N1CCc2ccccc21"
  MEASURED_NUMBER: 77.7
- MOLECULE: "O=C1Nc2ccccc2/C1=C/c1ccc(-c2cccc(C(=O)O)c2)o1"
  MEASURED_NUMBER: 89.4
- MOLECULE: "OCCCNc1cc(Nc2ccccc2)n2nccc2n1"
  MEASURED_NUMBER: 102
- MOLECULE: "COC(=O)C1=COC(C)C2CN3CCC4(NC(=O)c5c4ccc(OC)c5OC)C3CC12 (stereo not shown)"
  MEASURED_NUMBER: 107
- MOLECULE: "CC(=O)c1ccc(NC(=O)Cn2cnc3c(sc4ncccc43)c2=O)cc1"
  MEASURED_NUMBER: 95.4
- MOLECULE: "OCCN1CCC2(CC1)CN(CCO)c1ccccc12"
  MEASURED_NUMBER: 87.4
- MOLECULE: "CCCCC12CN3CC(C)(CN(C1)C31C(=O)N(C)c3ccc(C)cc31)C2=O (stereo not shown)"
  MEASURED_NUMBER: 96.1
- MOLECULE: "O=C(COc1cc(C(=O)O)nc2ccccc12)NCc1ccc(Cl)cc1"
  MEASURED_NUMBER: 92
- MOLECULE: "CC(C)(C)NCC(O)COc1ccc(Cl)cc1Cl (stereo not shown) [CBK025597C]"
  MEASURED_NUMBER: 101
- MOLECULE: "Cc1nc(SCc2ccccc2)nc(O)c1CC(=O)O"
  MEASURED_NUMBER: 96.8
- MOLECULE: "O=S(=O)(NCc1ccccc1)c1ccc(Cl)cc1"
  MEASURED_NUMBER: 86.7
